Please provide measured MIC for the entries that follow.
system: Salmonella typhimurium; assay: Antibacterial activity against Salmonella enterica serovar typhimurium C77-31 incubated for 18 to 24 hrs by broth microdilution method; type: functional, Salmonella enterica subsp. enterica serovar Typhimurium
Where a SMILES comes first, the peptide text is derived from it.
One number for each entry, in µM.

Examples with their reported MIC follow.
CC(C)[C@H](NC(=O)[C@H](CCCCN)NC(=O)[C@H](Cc1c[nH]c2ccccc12)NC(=O)[C@H](CCCCN)NC(=O)[C@@H](NC(=O)[C@H](CCCCN)NC(=O)[C@H](Cc1c[nH]c2ccccc12)NC(=O)[C@H](CCCCN)NC(=O)[C@@H](NC(=O)[C@H](CCCCN)NC(=O)[C@@H](N)Cc1c[nH]c2ccccc12)C(C)C)C(C)C)C(=O)N[C@@H](CCCCN)C(N)=O (H-WKVKWKVKWKVK-NH2) ... 2
CC1COc2c(N3CCN(C)CC3)c(F)cc3c(=O)c(C(=O)O)cn1c23 (configuration not stated) [OFLOXACIN] ... 0.25
CC(C)C[C@H](NC(=O)[C@H](CCCNC(=N)N)NC(=O)[C@H](Cc1c[nH]c2ccccc12)NC(=O)[C@H](CCCNC(=N)N)NC(=O)[C@@H](NC(=O)[C@H](CCCCN)NC(=O)[C@H](Cc1c[nH]c2ccccc12)NC(=O)[C@H](CCCNC(=N)N)NC(=O)[C@H](CC(C)C)NC(=O)[C@H](CCCNC(=N)N)NC(=O)[C@@H](N)Cc1c[nH]c2ccccc12)[C@@H](C)O)C(=O)N[C@@H](CCCCN)C(N)=O (H-WRLRWKTRWRLK-NH2) ... 2
CC[C@H](C)[C@H](NC(=O)[C@H](CCCCN)NC(=O)[C@H](Cc1c[nH]c2ccccc12)NC(=O)[C@H](CCCCN)NC(=O)[C@@H](NC(=O)[C@H](CCCCN)NC(=O)[C@H](Cc1c[nH]c2ccccc12)NC(=O)[C@H](CCCCN)NC(=O)[C@@H](NC(=O)[C@H](CCCCN)NC(=O)[C@@H](N)Cc1c[nH]c2ccccc12)[C@@H](C)CC)[C@@H](C)CC)C(=O)N[C@@H](CCCCN)C(N)=O (H-WKIKWKIKWKIK-NH2) ... 2
CC(C)[C@H](NC(=O)[C@H](CCCNC(=N)N)NC(=O)[C@H](Cc1c[nH]c2ccccc12)NC(=O)[C@H](CCCNC(=N)N)NC(=O)[C@@H](NC(=O)[C@H](CCCCN)NC(=O)[C@H](Cc1c[nH]c2ccccc12)NC(=O)[C@H](CCCNC(=N)N)NC(=O)[C@@H](NC(=O)[C@H](CCCNC(=N)N)NC(=O)[C@@H](N)Cc1c[nH]c2ccccc12)C(C)C)[C@@H](C)O)C(=O)N[C@@H](CCCCN)C(N)=O (H-WRVRWKTRWRVK-NH2) ... 4
CC(C)C[C@H](NC(=O)[C@H](CCCNC(=N)N)NC(=O)[C@H](Cc1c[nH]c2ccccc12)NC(=O)[C@H](CCCNC(=N)N)NC(=O)[C@@H](NC(=O)[C@H](CCCNC(=N)N)NC(=O)[C@H](Cc1c[nH]c2ccccc12)NC(=O)[C@H](CCCNC(=N)N)NC(=O)[C@H](CC(C)C)NC(=O)[C@H](CCCNC(=N)N)NC(=O)[C@@H](N)Cc1c[nH]c2ccccc12)[C@@H](C)O)C(=O)N[C@@H](CCCNC(=N)N)C(N)=O (H-WRLRWRTRWRLR-NH2) ... 4

Turning now to a further molecule:
Task: Fill blank: measured MIC of the molecule CC(C)C[C@H](NC(=O)[C@H](CCCNC(=N)N)NC(=O)[C@H](CCCCN)NC(=O)[C@H](Cc1c[nH]c2ccccc12)NC(=O)[C@@H](NC(=O)[C@H](CCCCN)NC(=O)[C@H](CCCCN)NC(=O)[C@H](Cc1c[nH]c2ccccc12)NC(=O)[C@H](CC(C)C)NC(=O)[C@H](CCCNC(=N)N)NC(=O)[C@@H](N)CCCNC(=N)N)[C@@H](C)O)C(=O)N[C@@H](Cc1c[nH]c2ccccc12)C(N)=O (H-RRLWKKTWKRLW-NH2) is ____.
Result: 8
